Attribution: patent EP0637448A1

- Tested on: EDEMA FROM CARRAGEENIN
- assay_details: carrageenin edema test
- Assay type: in vivo, mouse
- condition: NSAID alone, per os 60 minutes before carrageenin; edema volume after 3 hours; mouse; read-out: ED₅₀ ± S.D. (dose reducing edema by 50%)
assay_endpoint: ED50 (mg/kg)
Give just the number in mg/kg; leave the unit off.

Below, each entry is followed by its recorded ED50 result.
[
  {
    "compound": "CC(C)Cc1ccc(C(C)C(=O)O)cc1 (stereo not shown)",
    "assay_system": "EDEMA FROM CARRAGEENIN",
    "assay_endpoint": "ED50",
    "value_observed": 20
  },
  {
    "compound": "COc1ccc2c(c1)c(CC(=O)O)c(C)n2C(=O)c1ccc(Cl)cc1",
    "assay_system": "EDEMA FROM CARRAGEENIN",
    "assay_endpoint": "ED50",
    "value_observed": 84
  },
  {
    "compound": "CC(=O)Oc1ccccc1C(=O)O",
    "assay_system": "EDEMA FROM CARRAGEENIN",
    "assay_endpoint": "ED50",
    "value_observed": 5.1
  }
]

Now for the compound whose ED50 we want.
Requested read-out: ED50. Entry: O=C(O)Cc1ccccc1Nc1c(Cl)cccc1Cl [Sodium diclofenac]
10
